target: cdk1/cyclin B (Homo sapiens, UniProt P06493); experiment: Cyclin-dependent kinase assay, cdk1/cyclin B; settings: CDK1 IC50, nM, Histone H1, 10 µM ATP
Sequence (P06493 whole entry): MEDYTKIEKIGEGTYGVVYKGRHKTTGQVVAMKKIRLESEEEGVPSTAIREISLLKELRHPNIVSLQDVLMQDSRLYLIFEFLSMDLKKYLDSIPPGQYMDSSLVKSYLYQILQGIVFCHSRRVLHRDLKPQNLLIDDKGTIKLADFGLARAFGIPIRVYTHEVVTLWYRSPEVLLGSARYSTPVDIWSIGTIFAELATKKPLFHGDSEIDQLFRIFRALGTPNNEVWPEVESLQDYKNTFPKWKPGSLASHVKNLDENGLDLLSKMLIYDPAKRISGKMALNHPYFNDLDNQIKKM
Sequence (P14635 whole entry partner): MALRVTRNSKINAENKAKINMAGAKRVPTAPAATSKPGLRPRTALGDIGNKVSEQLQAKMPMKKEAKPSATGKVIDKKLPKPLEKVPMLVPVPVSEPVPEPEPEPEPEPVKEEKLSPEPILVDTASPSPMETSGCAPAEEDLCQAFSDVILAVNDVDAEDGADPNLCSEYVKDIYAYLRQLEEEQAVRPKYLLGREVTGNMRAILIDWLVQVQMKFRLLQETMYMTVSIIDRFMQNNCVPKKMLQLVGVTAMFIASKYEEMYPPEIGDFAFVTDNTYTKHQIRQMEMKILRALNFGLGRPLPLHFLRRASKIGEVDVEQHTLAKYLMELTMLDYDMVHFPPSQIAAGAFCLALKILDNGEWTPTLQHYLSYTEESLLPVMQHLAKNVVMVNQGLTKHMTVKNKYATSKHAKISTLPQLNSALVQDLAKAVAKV
Structures can show the parent of a compound that is named as a salt.
Quick reference: IC50 of the listed items.
Output spec: scalar in nM, unitless text.

// known answers, use as guide
N[C@H]1CC[C@H](Nc2nc(NC3CCN(S(=O)(=O)c4ccc(Cl)c(Cl)c4)CC3)c3ncn(C4CCCC4)c3n2)CC1 [compound 138, dihydrochloride] ... 40
Cc1cccc(Cl)c1NC(=O)N1CCC(Nc2nc(N[C@H]3CC[C@H](N)CC3)nc3c2ncn3C2CCCC2)CC1 [compound 196, dihydrochloride] ... 350
CCOc1ccccc1NC(=O)N1CCC(Nc2nc(N[C@H]3CC[C@H](N)CC3)nc3c2ncn3C2CCCC2)CC1 [compound 171, dihydrochloride] ... 51
N[C@H]1CC[C@H](Nc2nc(NC3CCN(C(=O)NCCc4ccccc4)CC3)c3ncn(C4CCCC4)c3n2)CC1 [compound 197, dihydrochloride] ... 200
Cc1ccccc1C(=O)N1CCC(Nc2nc(N[C@H]3CC[C@H](N)CC3)nc3c2ncn3C2CCCC2)CC1 [compound 70] ... 277
C=CCOC(=O)N1CCC(Nc2nc(N[C@H]3CC[C@H](N)CC3)nc3c2ncn3C2CCCC2)CC1 [compound 95, dihydrochloride] ... 75

Entry Cl.Cl.N[C@H]1CC[C@H](Nc2nc(NC3CCN(C(=O)Oc4ccccc4)CC3)c3ncn(C4CCCC4)c3n2)CC1 [compound 85, dihydrochloride] has what IC50?
26

// IC50 lookup, key: N[C@H]1CC[C@H](Nc2nc(NC3CCN(S(=O)(=O)c4cccc5cccnc45)CC3)c3ncn(C4CCCC4)c3n2)CC1 [compound 144, dihydrochloride]
2

Query (molecule): COc1ccc(CC(=O)N2CCC(Nc3nc(N[C@H]4CC[C@H](N)CC4)nc4c3ncn4C3CCCC3)CC2)cc1OC [compound 32, dihydrochloride] ; field requested: IC50
24

Any idea what its IC50 is? The molecule is CCOC(=O)c1ccc(NC(=O)N2CCC(Nc3nc(N[C@H]4CC[C@H](N)CC4)nc4c3ncn4C3CCCC3)CC2)cc1.Cl.Cl [compound 154, dihydrochloride]
11

Requested field: IC50. Item: CCOc1ccc(NC(=O)N2CCC(Nc3nc(N[C@H]4CC[C@H](N)CC4)nc4c3ncn4C3CCCC3)CC2)cc1 [compound 191, dihydrochloride]
23

---

biological target: cdk1/cyclin B (Homo sapiens); assay: Cyclin-dependent kinase assay, cdk1/cyclin B; details: CDK1 IC50, nM, Histone H1, 10 µM ATP
Counter-ions that a name gives are not always drawn.
Quantity: IC50 (nM)
Numbers only here, please. The scale is nM.

N[C@H]1CC[C@H](Nc2nc(NC3CCN(C(=O)C4CCCC4)CC3)c3ncn(C4CCCC4)c3n2)CC1 ... 66
N[C@H]1CC[C@H](Nc2nc(NC3CCN(C(=O)C(c4ccccc4)c4ccccc4)CC3)c3ncn(C4CCCC4)c3n2)CC1 [compound 40, dihydrochloride] ... 36
N[C@H]1CC[C@H](Nc2nc(NC3CCN(C(=O)Nc4ccc(Cl)cc4)CC3)c3ncn(C4CCCC4)c3n2)CC1 [compound 150, dihydrochloride] ... 26
N[C@H]1CC[C@H](Nc2nc(NC3CCN(C(=O)CCc4ccccc4)CC3)c3ncn(C4CCCC4)c3n2)CC1 [compound 33, dihydrochloride] ... 58

Which IC50 is reported for this compound? C[C@@H](NC(=O)N1CCC(Nc2nc(N[C@H]3CC[C@H](N)CC3)nc3c2ncn3C2CCCC2)CC1)c1ccccc1 [compound 160, dihydrochloride]
85

Item Cc1noc(C)c1S(=O)(=O)N1CCC(Nc2nc(N[C@H]3CC[C@H](N)CC3)nc3c2ncn3C2CCCC2)CC1 [compound 110, dihydrochloride] has what recorded IC50?
27

---

target: cdk4/cyclin D1 (Homo sapiens, UniProt P11802); assay: Cyclin-dependent kinase assay, cdk4/cyclin D1; assay type: biochemical; conditions: cyclin D1/cdk4; GST-pRb substrate, 10 µM ATP
Sequence (P11802 whole entry): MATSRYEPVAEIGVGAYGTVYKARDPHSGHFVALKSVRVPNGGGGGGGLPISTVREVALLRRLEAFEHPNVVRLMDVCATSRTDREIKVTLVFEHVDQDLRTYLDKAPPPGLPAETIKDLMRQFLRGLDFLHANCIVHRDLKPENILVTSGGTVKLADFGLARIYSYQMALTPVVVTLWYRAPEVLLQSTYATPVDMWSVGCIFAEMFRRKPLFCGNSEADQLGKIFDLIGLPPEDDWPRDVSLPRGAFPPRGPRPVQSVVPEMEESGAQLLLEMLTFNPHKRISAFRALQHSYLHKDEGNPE
Sequence (P24385 whole entry partner): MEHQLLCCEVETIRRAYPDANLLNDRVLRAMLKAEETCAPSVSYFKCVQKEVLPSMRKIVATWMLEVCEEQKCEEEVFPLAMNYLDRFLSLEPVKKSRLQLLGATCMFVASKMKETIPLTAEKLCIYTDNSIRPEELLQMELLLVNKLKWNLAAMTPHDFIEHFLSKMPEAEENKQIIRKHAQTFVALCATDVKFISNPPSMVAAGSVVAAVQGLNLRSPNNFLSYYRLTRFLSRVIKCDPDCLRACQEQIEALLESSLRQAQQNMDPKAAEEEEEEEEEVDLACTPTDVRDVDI
Where a name gives a salt, the structure may show the parent alone.
Quantity: IC50 (nM)
Use nM as the unit, but write only the number.

Below, each entry is followed by its recorded IC50 result.
COC(=O)c1ccccc1NC(=O)N1CCC(Nc2nc(N[C@H]3CC[C@H](N)CC3)nc3c2ncn3C2CCCC2)CC1 [compound 193, dihydrochloride] ... 507
Cc1ccc(OC(=O)N2CCC(Nc3nc(N[C@H]4CC[C@H](N)CC4)nc4c3ncn4C3CCCC3)CC2)cc1.Cl.Cl [compound 82, dihydrochloride] ... 131

Turning now to a further molecule:
Can you share its IC50? I mean this molecule: N[C@H]1CC[C@H](Nc2nc(NC3CCN(C(=O)NC4CC4c4ccccc4)CC3)c3ncn(C4CCCC4)c3n2)CC1 (mixture of isomers) [compound 156, dihydrochloride]
1620

---

test system: NCI-H460; assay: In vitro proliferation assay (MTT), NCI-H460; format: cell-based; conditions: Homo sapiens, NCI-H460, read-out: H-460 Lung (IC50 µM)
Counter-ions that a name gives are not always drawn.
Entries and their IC50 values follow.
State the answer as a number, implicitly in µM.

Reference set, count: 2
N[C@H]1CC[C@H](Nc2nc(NC3CCN(C(=O)Oc4ccccc4[N+](=O)[O-])CC3)c3ncn(C4CCCC4)c3n2)CC1 [compound 99, dihydrochloride] ... 0.16
Cl.Cl.N[C@H]1CC[C@H](Nc2nc(NC3CCN(C(=O)Oc4ccc(Cl)cc4)CC3)c3ncn(C4CCCC4)c3n2)CC1 [compound 88, dihydrochloride] ... 0.06

Moving on to another compound below.
Please report the recorded IC50 for COC(=O)c1ccc(OC(=O)N2CCC(Nc3nc(N[C@H]4CC[C@H](N)CC4)nc4c3ncn4C3CCCC3)CC2)cc1.Cl.Cl [compound 83, dihydrochloride] .
0.07

---

test system: Colo-205; test: In vitro proliferation assay (MTT), Colo-205; format: cell-based; settings: Homo sapiens, COLO 205; MTT assay; value (SD, n) where given; read-out: Colo-205 Colon (IC50 µM)
Structures can show the parent of a compound that is named as a salt.
// returns not satisfied unless IC50 is strictly below 0.06 µM, in which case satisfied

Here's what some known entries look like.
N[C@H]1CC[C@H](Nc2nc(NC3CCN(C(=O)c4cccc(Cl)c4)CC3)c3ncn(C4CCCC4)c3n2)CC1 [compound 6, dihydrochloride] ... satisfied
CCOc1ccc(NC(=O)N2CCC(Nc3nc(N[C@H]4CC[C@H](N)CC4)nc4c3ncn4C3CCCC3)CC2)cc1 [compound 191, dihydrochloride] ... not satisfied
N[C@H]1CC[C@H](Nc2nc(NC3CCN(S(=O)(=O)c4cccc5ccccc45)CC3)c3ncn(C4CCCC4)c3n2)CC1 [compound 123, dihydrochloride] ... not satisfied

Does this compound meet the criterion IC50 < 0.06 µM? CCOC(=O)c1ccc(NC(=O)N2CCC(Nc3nc(N[C@H]4CC[C@H](N)CC4)nc4c3ncn4C3CCCC3)CC2)cc1.Cl.Cl [compound 154, dihydrochloride]
satisfied

Lab note: confirm whether the reported IC50 for this compound is below 0.06 µM, equality not counting. compound: N[C@H]1CC[C@H](Nc2nc(NC3CCN(C(=O)COCc4ccccc4)CC3)c3ncn(C4CCCC4)c3n2)CC1 [compound 37, dihydrochloride]
satisfied

Is IC50 strictly under 0.06 µM for the entry N[C@H]1CC[C@H](Nc2nc(NC3CCN(C(=O)Nc4ccc(Cl)cc4C(F)(F)F)CC3)c3ncn(C4CCCC4)c3n2)CC1 [compound 178, dihydrochloride] ?
not satisfied

Check if IC50 falls below 0.06 µM for N[C@H]1CC[C@H](Nc2nc(NC3CCN(C(=O)c4ccc(F)cc4)CC3)c3ncn(C4CCCC4)c3n2)CC1 [compound 1, dihydrochloride] .
not satisfied

# check: IC50 < 0.06 µM for CSc1ccc(NC(=O)N2CCC(Nc3nc(N[C@H]4CC[C@H](N)CC4)nc4c3ncn4C3CCCC3)CC2)cc1 [compound 186, dihydrochloride]
satisfied

Please determine if N[C@H]1CC[C@H](Nc2nc(NC3CCN(C(=O)c4ccc5c(c4)OCO5)CC3)c3ncn(C4CCCC4)c3n2)CC1 [compound 5, dihydrochloride] is below 0.06 µM in terms of IC50.
satisfied

Here's an entry: N[C@H]1CC[C@H](Nc2nc(NC3CCN(S(=O)(=O)c4ccc(Cl)cc4)CC3)c3ncn(C4CCCC4)c3n2)CC1 [compound 108, dihydrochloride] . Is its IC50 below 0.06 µM?
not satisfied

Say whether its IC50 is strictly beneath 0.06 µM. Entry: N[C@H]1CC[C@H](Nc2nc(NC3CCN(C(=O)Nc4cc(C(F)(F)F)ccc4Cl)CC3)c3ncn(C4CCCC4)c3n2)CC1 [compound 177, dihydrochloride]
not satisfied

---

test: Bioavailability experiment in mice given single intravenous cassette doses; conditions: mice, single 15 mg/kg intravenous cassette dose (3 mg/kg/compound), Cassette #3, 24 h; BLQ = below assay quantification limit (approximately 1 ng/ml)
Quantity: Conc. in plasma

Cl.Cl.N[C@H]1CC[C@H](Nc2nc(NC3CCN(S(=O)(=O)c4cccc(C(F)(F)F)c4)CC3)c3ncn(C4CCCC4)c3n2)CC1 ... BLQ
Cl.Cl.N[C@H]1CC[C@H](Nc2nc(NC3CCN(C(=O)Oc4ccc(Cl)cc4)CC3)c3ncn(C4CCCC4)c3n2)CC1 ... BLQ
Cl.Cl.N[C@H]1CC[C@H](Nc2nc(NC3CCN(C(=O)Oc4ccc(F)cc4)CC3)c3ncn(C4CCCC4)c3n2)CC1 ... BLQ^a
Cl.Cl.N[C@H]1CC[C@H](Nc2nc(NC3CCN(C(=O)Nc4ccc(C(F)(F)F)cc4)CC3)c3ncn(C4CCCC4)c3n2)CC1 ... BLQ
